# assay method text: Quantum yield measurements versus Acridine Yellow in EtOH
# Type: physicochemical
# condition: BDC library, Table 2; excitation 460 nm
Binning rule for recorded φ (quantum yield): one (below 0.1%), two (0.1% to below 0.2%), three (0.2% or more)

Here's what some known entries look like.
# molecule, label class
measured = [
    ("COc1cc(OC)cc(-c2cn(-c3ccc4n3[B-](F)(F)[N+]3=C(N5CCCCC5)C=CC3=C4c3ccc(N)cc3)nn2)c1", "two"),
    ("Nc1ccc(C2=C3C=CC(N4CCCCC4)=[N+]3[B-](F)(F)n3c2ccc3-n2cc(-c3ccc(OC(F)(F)F)cc3)nn2)cc1", "two"),
    ("Nc1ccc(C2=C3C=CC(N4CCCCC4)=[N+]3[B-](F)(F)n3c2ccc3-n2cc(CO)nn2)cc1", "two"),
    ("Nc1ccc(C2=C3C=CC(N4CCCCC4)=[N+]3[B-](F)(F)n3c2ccc3-n2cc(CCc3ccccc3)nn2)cc1", "one"),
    ("Nc1ccc(C2=C3C=CC(N4CCCCC4)=[N+]3[B-](F)(F)n3c2ccc3-n2cc(-c3ccc(F)c(F)c3)nn2)cc1", "two"),
]

Prompt: Bin? "CC(C)(C)c1ccc(-c2cn(-c3ccc4n3[B-](F)(F)[N+]3=C(N5CCCCC5)C=CC3=C4c3ccc(N)cc3)nn2)cc1"
Completion: three

Prompt: Bin? "Nc1ccc(C2=C3C=CC(N4CCCCC4)=[N+]3[B-](F)(F)n3c2ccc3-n2cc(-c3cccc(F)c3)nn2)cc1"
Completion: two

Prompt: Bin? "Nc1ccc(C2=C3C=CC(N4CCCCC4)=[N+]3[B-](F)(F)n3c2ccc3-n2cc(CC3CCCCC3)nn2)cc1"
Completion: three

Prompt: Bin? "Nc1ccc(C2=C3C=CC(N4CCCCC4)=[N+]3[B-](F)(F)n3c2ccc3-n2cc(C3CCCCC3)nn2)cc1"
Completion: three

Prompt: Bin? "Nc1ccc(C2=C3C=CC(N4CCCCC4)=[N+]3[B-](F)(F)n3c2ccc3-n2cc(-c3ccccc3)nn2)cc1"
Completion: three

Prompt: Bin? "CN(Cc1ccccc1)Cc1cn(-c2ccc3n2[B-](F)(F)[N+]2=C(N4CCCCC4)C=CC2=C3c2ccc(N)cc2)nn1"
Completion: two

---

Reported λmax Emission is given for each of the following compounds.
# assay method text: Absorbance and fluorescence emission spectra (SpectraMax M2)
# Type: physicochemical
# condition: BDCAC library, Table 3
# Method: BDC-8 (Blue): absorbance λmax=473 nm, emission λmax=585 nm; MK101-8 (Green): absorbance λmax=474 nm, emission λmax=563 nm; MKHA374-48 (Yellow): absorbance λmax=468 nm, λem=557 nm. The corresponding spectra of a reported BODIPY (BD-27; Red) are also included for comparison: absorbance λmax=551 nm, emission λmax=568 nm. […] ^1H-NMR, ^19F-NMR and ^13C-NMR spectra were recorded on Bruker ACF300 (300 MHz), DPX300 (300 MHz) and AMX500 (500 MHz) spectrometers. […]
Kindly provide the numeric value in nm only, without the unit symbol.

// λmax Emission lookup, compound = CC(=O)Nc1ccc(C2=C3C=CC(N4CCCCC4)=[N+]3[B-](F)(F)n3c2ccc3-n2cc(CCc3ccccc3)nn2)cc1 [BDCAC-19] , result: 580

// λmax Emission lookup, compound = CCCCCC(O)c1cn(-c2ccc3n2[B-](F)(F)[N+]2=C(N4CCCCC4)C=CC2=C3c2ccc(NC(C)=O)cc2)nn1 (racemic) [BDCAC-69] , result: 587

// λmax Emission lookup, compound = CC(=O)Nc1ccc(C2=C3C=CC(N4CCCCC4)=[N+]3[B-](F)(F)n3c2ccc3-n2cc(CN(C)C)nn2)cc1 [BDCAC-2] , result: 591

// λmax Emission lookup, compound = CCCCCCCCCCc1cn(-c2ccc3n2[B-](F)(F)[N+]2=C(N4CCCCC4)C=CC2=C3c2ccc(NC(C)=O)cc2)nn1 [BDCAC-49] , result: 575

// λmax Emission lookup, compound = CCCc1cn(-c2ccc3n2[B-](F)(F)[N+]2=C(N4CCCCC4)C=CC2=C3c2ccc(NC(C)=O)cc2)nn1 [BDCAC-48] , result: 576

// λmax Emission lookup, compound = COc1cc(OC)cc(-c2cn(-c3ccc4n3[B-](F)(F)[N+]3=C(N5CCCCC5)C=CC3=C4c3ccc(NC(C)=O)cc3)nn2)c1 [BDCAC-14] , result: 588

// λmax Emission lookup, compound = CC(=O)Nc1ccc(C2=C3C=CC(N4CCCCC4)=[N+]3[B-](F)(F)n3c2ccc3-n2cc(CO)nn2)cc1 [BDCAC-70] , result: 583
